Measurement Target: recombinant human CK2 (Homo sapiens)
Sequence (P68400 whole entry): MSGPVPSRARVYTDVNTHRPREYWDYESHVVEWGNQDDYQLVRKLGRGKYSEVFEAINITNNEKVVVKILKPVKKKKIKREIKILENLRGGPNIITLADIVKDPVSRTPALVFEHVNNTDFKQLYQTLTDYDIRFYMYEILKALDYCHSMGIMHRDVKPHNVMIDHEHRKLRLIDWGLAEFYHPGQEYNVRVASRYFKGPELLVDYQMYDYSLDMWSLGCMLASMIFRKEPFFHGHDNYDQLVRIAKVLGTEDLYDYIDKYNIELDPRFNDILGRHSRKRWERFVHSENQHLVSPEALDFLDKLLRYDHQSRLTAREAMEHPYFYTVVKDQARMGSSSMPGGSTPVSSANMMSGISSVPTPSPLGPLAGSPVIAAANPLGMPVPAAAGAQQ
Sequence (P67870 whole entry partner): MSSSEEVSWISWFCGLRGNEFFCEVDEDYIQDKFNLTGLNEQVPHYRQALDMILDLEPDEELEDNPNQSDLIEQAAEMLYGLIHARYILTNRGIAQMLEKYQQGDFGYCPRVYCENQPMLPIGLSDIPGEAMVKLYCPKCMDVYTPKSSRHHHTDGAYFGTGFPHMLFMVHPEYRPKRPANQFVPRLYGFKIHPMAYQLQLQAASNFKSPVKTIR
Test Name: CK2 Kinase Assay (33P-ATP, substrate peptide RRRDDDSDDD)
Settings: final ATP concentration 15 μM, 10 min at 30° C.; read-out: protein kinase CK2 activity IC50
Property Measured: pIC50
Entry type: numeric. Quantity: pIC50, the -log10 of concentration in molar units.

Any idea what pIC50 came out for O=C(O)c1ccc2c(c1)c1ccncc1n2C(=O)c1cccc(Cl)c1 on recombinant human CK2 (Homo sapiens)?
7.29

Reference for the values: patent US11939330B1
